Target: ΔF508-CFTR (Homo sapiens, UniProt P13569, DEL508-508)
Construct: host or cells: CFBE41o-, doxycycline-inducible
Sequence (P13569 with tags, fused parts or gaps DEL508-508): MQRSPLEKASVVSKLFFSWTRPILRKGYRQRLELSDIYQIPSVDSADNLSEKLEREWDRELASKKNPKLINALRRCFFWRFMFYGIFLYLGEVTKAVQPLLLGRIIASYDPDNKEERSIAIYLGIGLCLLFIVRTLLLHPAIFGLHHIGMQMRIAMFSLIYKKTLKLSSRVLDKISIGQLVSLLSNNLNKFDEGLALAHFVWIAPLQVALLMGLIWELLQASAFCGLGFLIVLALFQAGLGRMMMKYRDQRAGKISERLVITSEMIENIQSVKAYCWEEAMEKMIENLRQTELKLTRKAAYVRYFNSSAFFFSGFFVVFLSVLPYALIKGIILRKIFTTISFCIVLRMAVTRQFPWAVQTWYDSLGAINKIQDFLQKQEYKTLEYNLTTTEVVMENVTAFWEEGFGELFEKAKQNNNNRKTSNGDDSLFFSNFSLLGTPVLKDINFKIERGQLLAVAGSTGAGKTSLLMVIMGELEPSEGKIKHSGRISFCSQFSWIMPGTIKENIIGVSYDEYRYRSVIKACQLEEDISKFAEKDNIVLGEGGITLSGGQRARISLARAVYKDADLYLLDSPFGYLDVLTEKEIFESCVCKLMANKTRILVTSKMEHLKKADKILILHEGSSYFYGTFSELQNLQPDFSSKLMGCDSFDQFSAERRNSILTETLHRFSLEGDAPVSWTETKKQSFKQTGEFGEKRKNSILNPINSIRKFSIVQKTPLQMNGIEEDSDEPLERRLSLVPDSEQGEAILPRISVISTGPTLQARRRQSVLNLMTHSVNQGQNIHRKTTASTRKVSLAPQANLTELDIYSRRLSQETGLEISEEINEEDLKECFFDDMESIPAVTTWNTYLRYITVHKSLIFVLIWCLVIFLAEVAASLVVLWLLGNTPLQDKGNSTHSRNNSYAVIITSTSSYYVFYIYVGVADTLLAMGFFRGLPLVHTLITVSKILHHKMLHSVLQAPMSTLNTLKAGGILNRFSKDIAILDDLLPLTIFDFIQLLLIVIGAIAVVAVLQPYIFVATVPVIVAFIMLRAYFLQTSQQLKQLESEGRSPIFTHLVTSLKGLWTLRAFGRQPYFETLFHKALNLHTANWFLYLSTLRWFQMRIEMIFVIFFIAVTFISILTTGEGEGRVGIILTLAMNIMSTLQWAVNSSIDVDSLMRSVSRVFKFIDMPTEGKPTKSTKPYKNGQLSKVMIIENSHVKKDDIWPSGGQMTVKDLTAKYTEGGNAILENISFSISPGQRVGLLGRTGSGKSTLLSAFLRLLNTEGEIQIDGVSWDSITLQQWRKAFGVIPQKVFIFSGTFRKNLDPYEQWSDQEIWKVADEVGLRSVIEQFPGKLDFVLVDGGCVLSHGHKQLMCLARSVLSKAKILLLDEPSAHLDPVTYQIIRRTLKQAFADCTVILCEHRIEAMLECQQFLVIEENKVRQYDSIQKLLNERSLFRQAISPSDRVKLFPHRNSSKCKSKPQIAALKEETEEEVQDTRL
Assay: CFTR cell surface levels using HRP-tagged ΔF508-CFTR expressing CFBE cells, intrinsic corrector capacity
Format: cell-based
Design: concentration or dose not given beside the values
Details: HRP-tagged ΔF508-CFTR expressing CFBE41o- cells; compound alone (intrinsic corrector capacity); 20 hours at 33° C.
ASSAY_METRIC: % Activation (%)
Answers are plain numbers, in %.

Consider the reported % Activation for these compounds:
SMILES_TEXT: CN(C)S(=O)(=O)NC(=O)c1cc(N2CCC3(CC2)CCN(C2COC2)CC3)c2c(C3CCC3)nn(-c3ccc(F)cc3)c2n1
UNITS_TEXT: %
% Activation: 172
//
SMILES_TEXT: CN(C1CCOCC1)S(=O)(=O)NC(=O)c1cc(N2CCC(N3CCOCC3)CC2)c2c(C3CCC3)nn(-c3ccc(F)cc3)c2n1
UNITS_TEXT: %
% Activation: 205
//
SMILES_TEXT: CS(=O)(=O)NC(=O)c1cc(N2CCC(OCC3CC3)CC2)c2c(C3CCC3)nn(-c3ccccc3)c2n1
UNITS_TEXT: %
% Activation: 243.75
//
SMILES_TEXT: COC1CN(C2CCN(c3cc(C(=O)NS(C)(=O)=O)nc4c3c(C3CCC3)nn4-c3ccc(F)cc3)CC2)C1
UNITS_TEXT: %
% Activation: 316.6
//
SMILES_TEXT: COCCS(=O)(=O)NC(=O)c1cc(-c2ccc(C(=O)N3CCC(N(C)C)CC3)cc2)c2c(OC(C)C)nn(C3CCCCC3)c2n1
UNITS_TEXT: %
% Activation: 112.7

Working through the 2 compounds below one at a time, give % Activation for each.
1. COCC1CCN(c2cc(C(=O)NS(=O)(=O)CCCN3CCOCC3)nc3c2c(C(C)C)nn3-c2ccc(F)cc2)CC1
2. O=C(NS(=O)(=O)N1CCC(N2CCCC2)CC1)c1cc(OCC2CCOCC2)c2c(C3CCC3)nn(-c3ccccc3)c2n1

result:
268.2
50.87

query: Need % Activation of `CO[C@H]1CC[C@@H](Oc2cc(C(=O)NS(C)(=O)=O)nc3c2c(C2CCC2)nn3-c2ccccc2)CC1` , thanks.
result: 114.4
